Target: G1 APOL1 (Homo sapiens, UniProt O14791, I384M/S342G)
Construct: expressed in transfected cells
Assay: Acute APOL1 Thallium Assay with inducible stable clones of HEK 293 cells
Assay type: cell-based
Settings: HEK 293 T-Rex cells expressing G1 APOL1; read-out: Thallium Assay (IC50)
Measurement kind: IC50

Each compound below has a reported value. Please supply its IC50.
1. O=C([C@H]1C[C@H](c2c(-c3ccc(F)cc3)[nH]c3c(F)cc(F)cc32)C1)N1C[C@@H](CO)OCC12CC2
2. CC1CC(NC(=O)[C@H]2C[C@H](c3c(-c4ccc(F)cc4)[nH]c4c(F)cc(F)cc43)C2)C(=O)O1 (some centres unmarked)
3. COC1CC1NC(=O)[C@H]1C[C@H](c2c(-c3ccc(F)cc3)[nH]c3c(F)cc(F)cc32)C1 (some centres unmarked)
4. C[C@@H](O)CNC(=O)[C@H]1C[C@H](c2c(-c3ccc(F)cc3)[nH]c3c(F)cc(F)cc32)C1
5. O=C(NCCCO)[C@H]1C[C@H](c2c(-c3ccc(F)cc3)[nH]c3c(F)cc(F)cc32)C1
6. CCC1(O)CN(C(=O)[C@H]2C[C@H](c3c(-c4ccc(F)cc4)[nH]c4c(F)cc(F)cc43)C2)C1
7. NC(=O)[C@@H]1CCN(C(=O)[C@H]2C[C@H](c3c(-c4ccc(F)cc4)[nH]c4c(F)cc(F)cc43)C2)C1

Resp:
> 1000 nM
> 1000 nM
> 1000 nM
250 to 1000 nM
250 to 1000 nM
> 1000 nM
> 1000 nM

###

Target: APOL1 G1 Protein (Homo sapiens, UniProt O14791, I384M/S342G)
Sequence (O14791 28-398 S342G/I384M): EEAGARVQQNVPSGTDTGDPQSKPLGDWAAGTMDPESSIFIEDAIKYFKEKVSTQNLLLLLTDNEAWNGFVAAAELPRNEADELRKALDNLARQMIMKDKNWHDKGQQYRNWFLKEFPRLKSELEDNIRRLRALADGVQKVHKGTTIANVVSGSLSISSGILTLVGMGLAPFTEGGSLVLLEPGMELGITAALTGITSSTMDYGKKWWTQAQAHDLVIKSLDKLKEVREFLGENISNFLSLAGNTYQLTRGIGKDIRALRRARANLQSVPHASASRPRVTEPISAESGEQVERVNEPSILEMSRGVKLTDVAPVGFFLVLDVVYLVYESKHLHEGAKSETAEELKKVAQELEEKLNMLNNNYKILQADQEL
Test: Trypanosoma brucei brucei lysis assay using APOL1 recombinant protein (AlamarBlue viability)
Format: cell-based
Details: Trypanosoma brucei brucei lysis, recombinant APOL1, AlamarBlue; read-out: Trypanosoma Assay (IC50)
Give IC50 for every item shown.

Req: Dear colleague, I am looking for the recorded IC50 of the following molecule: `O=C1C[C@H](NC(=O)[C@H]2C[C@H](c3c(-c4ccc(F)cc4)[nH]c4c(F)cc(F)cc43)C2)C(=O)N1`
Resp: < 250 nM

Each molecule below has a reported value. Please supply its IC50.
1. O=C([C@H]1C[C@H](c2c(-c3ccc(F)cc3)[nH]c3c(F)cc(F)cc32)C1)N1CC(n2cccn2)C1
2. O=C([C@H]1C[C@H](c2c(-c3ccc(F)cc3)[nH]c3c(F)cc(F)cc32)C1)N1CCC[C@@H](O)C1
3. CC1CC(NC(=O)[C@H]2C[C@H](c3c(-c4ccc(F)cc4)[nH]c4c(F)cc(F)cc43)C2)C(=O)O1 (stereo partly shown)
4. O=C([C@H]1C[C@H](c2c(-c3ccc(F)cc3)[nH]c3c(F)cc(F)cc32)C1)N1CCCCC1CO (stereo partly shown)
5. NC(=O)C1(NC(=O)[C@H]2C[C@H](c3c(-c4ccc(F)cc4)[nH]c4c(F)cc(F)cc43)C2)CC1

Resp:
["> 1000 nM", "< 250 nM", "> 1000 nM", "250 to 1000 nM", "250 to 1000 nM"]

Req: Dear colleague, I am looking for the recorded IC50 of the following molecule: `CCNC(=O)[C@@H]1CCCN1C(=O)[C@H]1C[C@H](c2c(-c3ccc(F)cc3)[nH]c3c(F)cc(F)cc32)C1`
Resp: > 1000 nM

Hey, just so you know, these numbers are from patent US12116343B2.
